Assay: chemical genetic growth profiling, strain panel (AID 1159580);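 also: tested at 20 µM; growth read once vehicle control cultures reached saturation at 30 °C; lower values mean less growth of the strain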
Details: S. cerevisiae deletion strains, growth OD, locus YEL003W, strain gim4
Hit rate of the full screen: of about 5,500 compounds, about 2,000 (36%) were called active. Inconclusive results (about 18%) are left out. Rule as the data show it: active = normalized growth mostly below about 0.91 (no sharp cut-off); inconclusive = no clear call, values can overlap the other calls; inactive = mostly above about 0.92. Some of the results follow.
The reply should be one of these categories: True (active), False (inactive)

The following molecules have reported results that may help.
molecule	class-name
CC(C(=O)O)c1ccc(-c2ccccc2)c(F)c1 (stereo not drawn)	False
COc1ccc(OC)c(C(O)C(C)N)c1 (stereo not drawn)	False
COc1ccc2cc([C@H](C)C(=O)O)ccc2c1	False
COc1ccc2cc([C@H](C)CO)ccc2c1	False
CC1=C(C(C)O)C2=NC1C=c1[nH]c(c(C)c1C(C)O)=Cc1[nH]c(c(CCC(=O)O)c1C)C=c1[nH]c(c(C)c1CCC(=O)O)=C2 (stereo not drawn)	False
CCOC(=O)CCC(=O)O[C@H]1[C@H](O[C@@H]2[C@@H](C)[C@H](O[C@H]3C[C@@](C)(OC)[C@@H](O)[C@H](C)O3)[C@@H](C)C(=O)O[C@H](CC)[C@@](C)(O)[C@H](O)[C@@H](C)C(=O)[C@H](C)C[C@@]2(C)O)O[C@H](C)C[C@@H]1N(C)C	False
CCC(=O)O[C@H]1[C@H](O[C@@H]2[C@@H](C)[C@H](O[C@H]3C[C@@](C)(OC)[C@@H](O)[C@H](C)O3)[C@@H](C)C(=O)O[C@H](CC)[C@@](C)(O)[C@H](O)[C@@H](C)C(=O)[C@H](C)C[C@@]2(C)O)O[C@H](C)C[C@@H]1N(C)C	True

Inquiry: For `O=C(O)c1cc2ccccc2[nH]1` , which call appears in the assay record?
Reply text: False

Hey, just so you know, these numbers are from PubChem BioAssay AID1159580.
